# tgt: T1, human IL-11 (human, UniProt P20809 22-199)
# T1 sequence: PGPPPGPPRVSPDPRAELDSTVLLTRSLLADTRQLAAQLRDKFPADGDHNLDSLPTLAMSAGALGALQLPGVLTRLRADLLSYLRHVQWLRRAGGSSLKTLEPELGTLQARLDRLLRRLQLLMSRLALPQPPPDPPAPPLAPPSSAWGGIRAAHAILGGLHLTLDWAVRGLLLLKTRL
# assay overview: cell-based or functional assay
# IC50, RGA 1 values compiled below

Observe how each entry below is paired with its result.
binder	experimental readout	observed
TPP-31283 (antibody, IgG4, V domains shown) VH: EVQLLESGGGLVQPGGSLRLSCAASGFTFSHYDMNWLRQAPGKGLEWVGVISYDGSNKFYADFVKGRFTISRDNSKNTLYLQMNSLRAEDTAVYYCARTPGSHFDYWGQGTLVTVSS VL: QSVLTQPPSASGTPGQRVTISCSGSSSNIGNNAVNWYQQLPGTAPKLLIYYDDQLPSGVPDRFSGSKSGTSASLAISGLRSEDEADYYCSAWDDSLNGVVFGGGTKLTVL	IC50, RGA 1	> 500 nM
TPP-31310 (antibody, IgG4, V domains shown) VH: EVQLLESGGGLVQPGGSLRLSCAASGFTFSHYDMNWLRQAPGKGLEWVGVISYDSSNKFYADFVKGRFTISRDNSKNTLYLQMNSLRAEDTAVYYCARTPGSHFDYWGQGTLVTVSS VL: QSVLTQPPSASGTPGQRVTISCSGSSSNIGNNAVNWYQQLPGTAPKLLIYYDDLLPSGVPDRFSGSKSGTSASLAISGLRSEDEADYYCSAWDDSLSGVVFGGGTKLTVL	IC50, RGA 1	> 500 nM

Below: the item to evaluate.
Consider TPP-31306 (antibody, IgG4, V domains shown) VH: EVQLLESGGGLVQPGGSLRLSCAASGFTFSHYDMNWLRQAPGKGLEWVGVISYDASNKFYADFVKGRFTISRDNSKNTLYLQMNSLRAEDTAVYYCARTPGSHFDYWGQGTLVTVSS VL: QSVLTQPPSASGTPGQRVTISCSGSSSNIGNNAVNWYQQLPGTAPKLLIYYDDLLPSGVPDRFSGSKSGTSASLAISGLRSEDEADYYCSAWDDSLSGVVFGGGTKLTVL . Its measured IC50, RGA 1 is 126 nM
